target: Recombinant human Plk-1 (6×His) (Homo sapiens); construct: 6xHis; test: PLK enzyme assay (33P-γ-ATP incorporation into biotin casein, SPA beads); conditions: 0.5 μM ATP, 0.7 μM casein, 90 minutes at room temperature, read-out: Inhibition PLK-1 IC50
Sequence (P53350 whole entry): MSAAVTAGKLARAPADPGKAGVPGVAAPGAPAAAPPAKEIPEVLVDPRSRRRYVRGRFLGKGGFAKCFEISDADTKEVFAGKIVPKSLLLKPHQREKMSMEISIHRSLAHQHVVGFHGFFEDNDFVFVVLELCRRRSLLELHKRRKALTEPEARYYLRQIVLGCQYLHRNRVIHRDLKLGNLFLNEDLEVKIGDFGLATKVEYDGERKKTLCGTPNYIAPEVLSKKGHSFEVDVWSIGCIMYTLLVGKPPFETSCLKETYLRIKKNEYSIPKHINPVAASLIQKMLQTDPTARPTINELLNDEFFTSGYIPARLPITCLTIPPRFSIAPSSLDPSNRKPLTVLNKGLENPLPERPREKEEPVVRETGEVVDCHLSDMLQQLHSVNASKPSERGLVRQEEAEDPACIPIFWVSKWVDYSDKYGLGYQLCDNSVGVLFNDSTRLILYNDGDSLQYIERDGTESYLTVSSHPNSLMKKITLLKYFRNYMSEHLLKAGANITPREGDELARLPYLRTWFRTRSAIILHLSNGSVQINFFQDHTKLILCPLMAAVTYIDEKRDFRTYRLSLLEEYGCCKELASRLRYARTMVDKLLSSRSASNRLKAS
parameter: IC50 (nM)

# annotated cases, reported IC50 shown
C#CCNC(=O)C(C#N)=c1sc(=CNc2ccc(OCCN(C)C)cc2)c(=O)n1CC [Comparison 307 from PCT/EP2004/ 012242, reference compound]    71
CCn1c(=C(C#N)C(=O)NCC(F)F)sc(=CNc2cccc(OCCN(C)C)c2)c1=O (mixture of isomers) [Example 127]    24
C#CCNC(=O)C(C#N)=c1sc(=CNc2cccc(OCCN(C)C)c2)c(=O)n1CC (mixture of isomers) [Example 126]    22

[A] CCn1c(=C(C#N)C(=O)NCC(F)(F)F)sc(=CNc2cccc(NC(=O)C(C)(C)C)n2)c1=O (mixture of isomers) [Example 41]
[B] CCNC(=O)C(C#N)=c1sc(=CNc2cccc(NC(=O)CN3CCCC3)c2)c(=O)n1CC (mixture of isomers) [Example 55]
Out of A and B , name the one with the higher IC50. Provide the label of your selected option as the answer.
B

From: patent US20070015759A1
